procedure.details: Selectivity index, ratio of inhibition of DNA dependent DNA polymerase activity of Escherichia coli DNA polymerase 1 Klenow fragment to inhibition of DNA dependent DNA polymerase activity of HIV1 BH10 recombinant reverse transcriptase p66/p51

>  <compound.structure.string>
CCCOCCCNC(=S)Nc1ccccc1OCC

>  <Ratio>
5.4

$$$$
>  <compound.structure.string>
CCCOCCCNC(=S)Nc1ccc(Cl)cc1Cl

>  <Ratio>
0.2

$$$$
>  <compound.structure.string>
CCCOCCCNC(=S)Nc1cc(Cl)ccc1OC

>  <Ratio>
3.2

$$$$
>  <compound.structure.string>
CCCOCCCNC(=S)Nc1cc(C)ccc1OC

>  <Ratio>
4.3

$$$$
>  <compound.structure.string>
CCCOCCCNC(=S)Nc1cccc(C(=O)OCC)c1

>  <Ratio>
1.2

$$$$
